- SETTINGS: 318.15 K; 100 kPa; Liquid; Vibrating tube method
QUANTITY KIND: mass density (kg/m3)
Give bare numbers, in kg/m3.

- COMPOUND: "CC[NH+](CC)CC.O=C([O-])c1ccccc1 [triethylammonium benzoate]"
  mass density [kg/m3]: 1084.47
- COMPOUND: "CCC(=O)[O-].OCC[NH+](CCO)CCO [triethanolammonium propanoate]"
  mass density [kg/m3]: 1124.25
- COMPOUND: "CCN(CC)CC.O=C(O)c1ccccc1O [triethylammonium salicylate]"
  mass density [kg/m3]: 1082.83

Could you report mass density for every entry in the following list?
1. CC[NH+](C)C.O=C([O-])C(F)(F)F [N,N-dimethyl-N-ethylammonium trifluoroacetate]
2. CC(=O)O.CCN(CC)CC [triethylammonium acetate]

1. 1191.03
2. 994.55

* * *

- SETTINGS: 333.15 K; 100 kPa; Liquid; Vibrating tube method
Could you please report measured mass density for the items listed next?
Give bare numbers, in kg/m3.

- COMPOUND: "CCC(=O)[O-].OCC[NH+](CCO)CCO [triethanolammonium propanoate]"
  READOUT UNIT: "kg/m3"
  mass density: 1114.84

Batch request: mass density for each of the following compounds.
1. CC[NH+](CC)CC.O=C([O-])c1ccccc1 [triethylammonium benzoate]
2. CC[NH2+]CC.O=S(=O)([O-])O [diethylammonium hydrogen sulfate]
3. CC[NH+](CC)CC.O=C([O-])C(F)(F)F [triethylammonium trifluoroacetate]

1: 1074.3; 2: 1357.53; 3: 1132.82

* * *

- SETTINGS: 308.15 K; 100 kPa; Liquid; Vibrating tube method
I'd appreciate it if you could supply mass density values for the items below.
Give bare numbers, in kg/m3.

Solved cases below.
- MOLECULE: "CC[NH+](CC)CC.O=S(=O)([O-])C(F)(F)F [triethylammonium trifluoromethanesulfonate]"
  QUANTITY KIND: "mass density"
  QUANTITATIVE READOUT: 1256.47
- MOLECULE: "CC[NH+](C)C.O=C([O-])C(F)(F)F [N,N-dimethyl-N-ethylammonium trifluoroacetate]"
  QUANTITY KIND: "mass density"
  QUANTITATIVE READOUT: 1199.56

Could you share which mass density value was measured for CC[NH+](CC)CC.O=C([O-])c1ccccc1 [triethylammonium benzoate] ?
1091.27

* * *

Could you please report measured mass density for the items listed next?
- SETTINGS: 323.15 K; 100 kPa; Liquid; Vibrating tube method
One number for each entry, in kg/m3.

- COMPOUND: "CC[NH+](C)C.O=C([O-])C(F)(F)F [N,N-dimethyl-N-ethylammonium trifluoroacetate]"
  mass density / kg/m3: 1186.78
- COMPOUND: "CC[NH+](CC)CC.CS(=O)(=O)[O-] [triethylammonium methanesulfonate]"
  mass density / kg/m3: 1100.54
- COMPOUND: "O=S(=O)(O)O.OCCN(CCO)CCO [triethanolammonium hydrogen sulfate]"
  mass density / kg/m3: 1421.3

Now turn to the next compound.
// query mass density value for entry CC[NH2+]CC.O=S(=O)([O-])O [diethylammonium hydrogen sulfate]
1363.73

* * *

- SETTINGS: 338.15 K; 100 kPa; Liquid; Vibrating tube method
QUANTITY KIND: mass density (kg/m3)
One number for each entry, in kg/m3.

Kindly give each listed record's mass density.
1. CC[NH+](CC)CC.CS(=O)(=O)[O-] [triethylammonium methanesulfonate]
2. CC[NH+](C)C.O=C([O-])C(F)(F)F [N,N-dimethyl-N-ethylammonium trifluoroacetate]

[1090.72, 1174.09]

Value sought for every listed molecule: mass density.
1. CC[NH+](CC)CC.O=C([O-])c1ccccc1 [triethylammonium benzoate]
2. O=C(O)c1ccccc1O.OCCN(CCO)CCO [triethanolammonium salicylate]
3. CC[NH+](CC)CC.O=S(=O)([O-])C(F)(F)F [triethylammonium trifluoromethanesulfonate]
4. CC[NH2+]CC.O=C([O-])C(F)(F)F [diethylammonium trifluoroacetate]
5. O=S(=O)(O)O.OCCN(CCO)CCO [triethanolammonium hydrogen sulfate]
6. CCN(CC)CC.O=P(O)(O)O [triethylammonium dihydrogen phosphate]

1070.92
1242.4
1232.58
1146.65
1413.85
1329.48

* * *

- SETTINGS: 333.15 K; 100 kPa; Liquid; Vibrating tube method
QUANTITY KIND: mass density (kg/m3)
One number for each entry, in kg/m3.

- COMPOUND: "O=C(O)c1ccccc1O.OCCN(CCO)CCO [triethanolammonium salicylate]"
  READOUT UNIT: "kg/m3"
  mass density: 1245.42
- COMPOUND: "CCN(CC)CC.O=C(O)c1ccccc1O [triethylammonium salicylate]"
  READOUT UNIT: "kg/m3"
  mass density: 1073.13
- COMPOUND: "CC[NH+](CC)CC.O=S(=O)([O-])C(F)(F)F [triethylammonium trifluoromethanesulfonate]"
  READOUT UNIT: "kg/m3"
  mass density: 1236.53
- COMPOUND: "CC[NH2+]CC.CS(=O)(=O)[O-] [diethylammonium methanesulfonate]"
  READOUT UNIT: "kg/m3"
  mass density: 1117.5

Turning now to a further compound:
Entry under review: CC(=O)O.CCN(CC)CC [triethylammonium acetate] . Reported mass density?
983.14

* * *

- SETTINGS: 338.15 K; 100 kPa; Liquid; Vibrating tube method
± gives the expanded uncertainty stated by the source.
Kindly supply the reported mass density values for the records listed here.

Check out these entries, answers already filled in.
- MOLECULE: "CCN(CC)CC.O=C(O)c1ccccc1O [triethylammonium salicylate]"
  mass density: "1069.93 ± 8 kg/m3"
- MOLECULE: "CCC(=O)[O-].OCC[NH+](CCO)CCO [triethanolammonium propanoate]"
  mass density: "1111.68 ± 6.7 kg/m3"

Consider now this further molecule.
Given the entry CC[NH+](CC)CC.O=C([O-])C(F)(F)F [triethylammonium trifluoroacetate] , report its measured mass density.
1128.74 ± 8.9 kg/m3

Origin of values: the NIST ThermoML archive (doi:10.1021/acs.jced.8b00725)
